Listed here: items and their measured efflux ratio.
experiment: Caco permeability and efflux; type: in vitro ADME; details: human, Caco-2; Efflux ratio = BtA/AtB
Form field (numeric): enter value without unit.

[[record]]
molecule = "Cc1cnc(Nc2cccnc2F)nc1-c1c[nH]c2c(NC(=O)[C@@H](C)N3CCN(C)CC3)cccc12 [Cmpd A]"
assay_readout = "efflux ratio"
result_value = 1


Pending molecule:
Name the recorded efflux ratio of the molecule listed here: Cc1cnc(Nc2cc(N3C[C@@H]4C[C@H]3CN4C)cnc2F)nc1N[C@H](C)[C@H](C)CO [Cmpd B]
14

###

experiment: Caco permeability and efflux; format: in vitro ADME; conditions: human, Caco-2; read-out: Caco AtB
ASSAY READOUT: Papp A→B (×10⁻⁶ cm/s)
Use ×10⁻⁶ cm/s as the unit, but write only the number.

Consider the reported Papp A→B for these compounds:
[[record]]
compound = "Cc1cnc(Nc2cc(N3C[C@@H]4C[C@H]3CN4C)cnc2F)nc1N[C@H](C)[C@H](C)CO"
result_value = 0.3

[[record]]
compound = "Cc1cnc(Nc2cccnc2F)nc1-c1c[nH]c2c(NC(=O)[C@@H](C)N3CCN(C)CC3)cccc12"
result_value = 21


Name the recorded Papp A→B of the compound listed here: COCC(C(=O)Nc1cccc2c(-c3nc(Nc4cccc(S(C)(=O)=O)c4F)ncc3F)c[nH]c12)N1CCN(C)CC1 (stereo not drawn)
6.7
